Exercise: for every item that follows, state its recorded LD50.
assay: Lethal dose in mice determined by Litchfield and Wilcoxon methods after peroral administration.; assay type: toxicity, organism-based; conditions: mouse, in vivo, po

Dear colleague, could you send me LD50 for each of the items below? Thanks.
1. Cc1ccc2nccc(N/C(=N/C3CCCCC3)Nc3nccs3)c2c1
2. Cc1cc(N/C(=N/C(C)(C)C)Nc2ccccc2)c2ccccc2n1
3. CC(C)(C)/N=C(\Nc1nccs1)Nc1ccnc2cc(Cl)ccc12
4. CC(C)(C)/N=C(\Nc1ccc2ccccc2n1)Nc1nccs1

1. > 1000 mg/kg
2. 40 mg/kg
3. > 1000 mg/kg
4. > 1000 mg/kg

Dear colleague, could you send me LD50 for each of the items below? Thanks.
1. CC/N=C(/Nc1nccs1)Nc1cc(C)nc2ccccc12
2. Cc1c(Cl)cccc1N/C(=N\C(C)(C)C)Nc1nccs1
3. CCCCCCCCCCCCCCCCCC/N=C(\Nc1nccs1)Nc1cc(C)nc2ccccc12.Cl

["100 mg/kg", "> 1000 mg/kg", "> 1000 mg/kg"]

Dear colleague, could you send me LD50 for each of the items below? Thanks.
1. Cc1cc(N/C(=N/c2ccccc2C)Nc2nccs2)c2ccccc2n1
2. Cc1cc(N/C(=N/C(C)(C)C)Nc2nnc(S)s2)c2ccccc2n1
3. CCOc1cc(N/C(=N/C(C)(C)C)Nc2nccs2)c2ccccc2n1
4. CC(C)CC(C)(C)/N=C(\Nc1ccncc1)Nc1nccs1
5. Cc1cc(N/C(=N/CC2CCCCC2)Nc2nccs2)c2ccccc2n1
6. Cc1cc(N/C(=N/C2CCCCC2)Nc2nc(C(=O)O)cs2)c2ccccc2n1
7. CC(C)(C)/N=C(\Nc1nccs1)Nc1cc(C(F)(F)F)nc2ccccc12
8. Cc1nc2ccccc2cc1N/C(=N\C(C)(C)C)Nc1nccs1

1. > 1000 mg/kg
2. > 1000 mg/kg
3. 800 mg/kg
4. 800 mg/kg
5. > 1000 mg/kg
6. > 1000 mg/kg
7. > 1000 mg/kg
8. > 1000 mg/kg

Values from ChEMBL document CHEMBL1121519
